- System: soluble epoxide hydrolase (sEH)
- Construct: For the expression of sEH-H and sEH-Fl transformed E.coli BL21 (DE3) cells were grown in 5052; made in house; host or cells: E. coli BL21 (DE3)
- protocol: Differential scanning fluorimetry (DSF) screen on sEH
- Format: binding
- condition.info: 500 μM fragment, mean of duplicates
- Protocol: For the primary screen of this fragment library, we employed differential scanning fluorimetry (DSF, also known as thermal shift). […] The measurements were performed using a iCycler iQ™ Single -Color Real Time PCR device with a heat rate of 1 °C per min, an excitation wavelength of 490 nm and an emission wavelength of 570 nm. The first derivation calculated by MyiQ Op tical Software 1.0 was analyzed using Microsoft Office Excel 2013 by comparing the maxima. […]
Record form. Attribute: DSF/ΔT m sEH. Fill in for each entry.
Answers are plain numbers, in °C.

Reference set, count: 2
Oc1ccc(Cc2ccccc2)cc1 0.0
Oc1ccc(-c2ccc(F)cc2F)cc1 1.0

# input for lookup
Incoming: Report DSF/ΔT m sEH under test system soluble epoxide hydrolase (sEH) for `Cc1cc(=O)n(-c2ccc(C)c(C)c2)[nH]1` .
Outgoing: 2.2

----------
Record form. Attribute: IC50. Fill in for each entry.
- experimental.target: 5‐lipoxygenase (5‐LOX) (Homo sapiens, UniProt P09917)
- Sequence (P09917 1-674): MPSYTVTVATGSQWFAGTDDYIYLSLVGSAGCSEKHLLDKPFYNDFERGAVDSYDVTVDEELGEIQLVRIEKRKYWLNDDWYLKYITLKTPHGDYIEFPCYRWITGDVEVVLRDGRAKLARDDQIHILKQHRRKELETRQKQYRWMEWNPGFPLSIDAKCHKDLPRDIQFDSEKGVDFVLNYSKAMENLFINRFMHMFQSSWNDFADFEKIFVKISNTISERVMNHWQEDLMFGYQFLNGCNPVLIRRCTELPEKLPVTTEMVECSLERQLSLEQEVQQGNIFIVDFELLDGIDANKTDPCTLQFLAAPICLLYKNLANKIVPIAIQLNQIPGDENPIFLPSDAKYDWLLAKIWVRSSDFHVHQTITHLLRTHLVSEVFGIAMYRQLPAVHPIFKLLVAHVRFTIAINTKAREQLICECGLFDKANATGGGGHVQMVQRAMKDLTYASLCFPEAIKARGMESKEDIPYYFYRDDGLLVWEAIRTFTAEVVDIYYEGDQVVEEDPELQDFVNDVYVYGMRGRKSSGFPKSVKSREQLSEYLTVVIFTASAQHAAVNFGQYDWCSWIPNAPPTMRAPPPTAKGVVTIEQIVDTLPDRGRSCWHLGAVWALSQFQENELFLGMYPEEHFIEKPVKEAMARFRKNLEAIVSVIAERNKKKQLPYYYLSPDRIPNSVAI

compound	IC50
CC(C)COCC(CN(Cc1ccccc1)c1ccccc1)N1CCCC1 (stereo not shown) [Compound 15, bepridil, reference compound]	3.2 µM
Fc1ccc(-c2c[nH]c3ccccc23)cc1	54.3 µM
Oc1ccc2cc[nH]c2c1	19.9 µM

Incoming: Look up and report measured IC50 for this entry: `Cc1cc(=O)n(-c2ccc(C)c(C)c2)[nH]1`
Outgoing: 21.2 µM

----------
- experimental.target: FXR (Homo sapiens, UniProt Q96RI1)
- Construct: His6-tag and TEV site (N, cleaved yes); made in house; host or cells: E. coli BL21 (DE3)
- Sequence (Q96RI1 244-472 isoform Q96RI1-2): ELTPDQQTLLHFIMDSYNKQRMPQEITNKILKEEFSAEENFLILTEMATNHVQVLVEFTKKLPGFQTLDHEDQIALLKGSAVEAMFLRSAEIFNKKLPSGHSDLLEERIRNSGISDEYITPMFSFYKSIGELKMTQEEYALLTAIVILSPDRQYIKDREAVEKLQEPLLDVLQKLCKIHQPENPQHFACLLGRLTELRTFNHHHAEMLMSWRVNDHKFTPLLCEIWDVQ
- protocol: ITC measurement FXR LBD
- Assay type: binding
- Parameters: key: n.b.: no binding; w.b.: weak binding
- condition.info: 50 μM protein, 250 μM compound, 25 °C
parameter: FXR K d

molecule	parameter	result
Fc1ccc(-c2c[nH]c3ccccc23)cc1 [Compound 10]	FXR K d	n.b.
Oc1ccc2cc[nH]c2c1 [Compound 5]	FXR K d	n.b.
c1ccc(N2CCNCC2)nc1 [Compound 1]	FXR K d	n.b.
Clc1ccc2c(c1)Nc1ccccc1CC2 [Compound 8]	FXR K d	w.b.

----------
- experimental.target: leukotriene A4 hydrolase (LTA4H) (Homo sapiens, UniProt P09960)
- Construct: made in house; host or cells: E. coli BL21 (DE3)
- Sequence (P09960 whole entry): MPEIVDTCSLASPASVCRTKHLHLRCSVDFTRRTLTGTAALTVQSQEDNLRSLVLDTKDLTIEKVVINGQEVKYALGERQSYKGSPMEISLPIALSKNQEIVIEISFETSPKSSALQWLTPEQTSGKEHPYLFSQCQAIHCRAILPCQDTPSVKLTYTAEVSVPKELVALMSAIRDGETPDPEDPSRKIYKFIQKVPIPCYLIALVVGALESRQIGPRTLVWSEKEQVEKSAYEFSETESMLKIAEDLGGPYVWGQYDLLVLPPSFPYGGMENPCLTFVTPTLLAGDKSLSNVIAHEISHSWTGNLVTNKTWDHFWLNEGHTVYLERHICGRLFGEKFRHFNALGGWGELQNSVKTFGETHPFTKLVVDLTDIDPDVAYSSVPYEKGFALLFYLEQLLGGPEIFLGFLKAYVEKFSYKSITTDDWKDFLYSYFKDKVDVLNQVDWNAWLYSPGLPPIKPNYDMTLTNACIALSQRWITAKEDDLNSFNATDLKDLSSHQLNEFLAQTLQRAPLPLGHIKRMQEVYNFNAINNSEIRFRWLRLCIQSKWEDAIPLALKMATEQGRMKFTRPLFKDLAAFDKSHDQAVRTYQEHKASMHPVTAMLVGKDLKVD
- protocol: Differential scanning fluorimetry (DSF) screen on LTA4H
- Assay type: binding
- condition.info: 500 μM fragment, mean of duplicates
DSF/ΔT m LTA4H below 0.7 °C gives No; DSF/ΔT m LTA4H at or above it gives Yes.

Illustrative cases are given below, each with its answer.
Clc1ccc2c(c1)Nc1ccccc1CC2 Yes
Oc1ccc2cc[nH]c2c1 Yes
Oc1ccc(Cc2ccccc2)cc1 Yes

Incoming: Say whether `Cc1cc(=O)n(-c2ccc(C)c(C)c2)[nH]1` shows DSF/ΔT m LTA4H of 0.7 °C or more.
Outgoing: No

Incoming: Say whether `Fc1ccc(-c2c[nH]c3ccccc23)cc1` shows DSF/ΔT m LTA4H of 0.7 °C or more.
Outgoing: Yes

Incoming: Say whether `CCN(Cc1ccccc1)c1ccccc1` shows DSF/ΔT m LTA4H of 0.7 °C or more.
Outgoing: No

Incoming: Say whether `CCCCOc1cc(C(=O)OC)ccc1N` shows DSF/ΔT m LTA4H of 0.7 °C or more.
Outgoing: Yes

Incoming: Say whether `Cc1ccccc1C(=O)Nc1ccccc1` shows DSF/ΔT m LTA4H of 0.7 °C or more.
Outgoing: Yes

Incoming: Say whether `c1ccc(N2CCNCC2)nc1` shows DSF/ΔT m LTA4H of 0.7 °C or more.
Outgoing: No

----------
- experimental.target: soluble epoxide hydrolase (sEH) (Homo sapiens)
- Construct: made in house; host or cells: E. coli BL21 (DE3)
- Sequence (P34913 1-555): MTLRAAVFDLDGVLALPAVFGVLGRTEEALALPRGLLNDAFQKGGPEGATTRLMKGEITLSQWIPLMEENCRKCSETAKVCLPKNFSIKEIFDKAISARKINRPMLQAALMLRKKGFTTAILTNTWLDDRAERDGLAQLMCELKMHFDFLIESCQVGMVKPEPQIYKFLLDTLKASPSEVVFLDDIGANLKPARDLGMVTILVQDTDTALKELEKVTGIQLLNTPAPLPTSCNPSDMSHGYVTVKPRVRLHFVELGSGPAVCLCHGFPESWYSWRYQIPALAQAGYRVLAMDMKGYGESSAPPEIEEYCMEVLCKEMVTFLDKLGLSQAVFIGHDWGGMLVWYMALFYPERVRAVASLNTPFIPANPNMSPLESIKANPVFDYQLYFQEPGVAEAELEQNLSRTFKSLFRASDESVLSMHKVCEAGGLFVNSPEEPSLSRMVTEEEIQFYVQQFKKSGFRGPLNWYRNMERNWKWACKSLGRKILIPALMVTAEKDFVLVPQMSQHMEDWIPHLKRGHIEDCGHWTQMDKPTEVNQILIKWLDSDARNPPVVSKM
- protocol: sEH-H activity assay (fluorogenic substrate PHOME)
- Assay type: biochemical
- condition.info: ligand efficiency calculated from IC50
- Method: For hit validation, we employed secondary assays with orthogonal readouts to confirm fragment activities. Biochemical activity assays were chosen for the enzymes sEH, LTA4H, and 5‐LOX. […] RXRα and FXR modulation was assessed in cell‐based hybrid reporter gene assays. […] % (5-LOX) as well as the hits determined in the DSF experiments were further measured with concentrations between 1000 µM and 0.1 µM (sEH-H and LTA4H) and between 300 µM and 1 µM (5-LOX). […]
parameter: sEH LE (kcal/mol)
Answers are plain numbers, in kcal/mol.

Reference set, count: 4
Cc1cc(=O)n(-c2ccc(C)c(C)c2)[nH]1 0.35
Clc1ccc2c(c1)Nc1ccccc1CC2 0.33
Fc1ccc(-c2c[nH]c3ccccc23)cc1 0.33
Cc1ccccc1C(=O)Nc1ccccc1 0.31

Incoming: Look up and report measured sEH LE for this entry: `Oc1ccc(-c2ccc(F)cc2F)cc1`
Outgoing: 0.36

----------
Record form. Attribute: DSF/ΔT m sEH. Fill in for each entry.
- Test system: soluble epoxide hydrolase (sEH)
- Construct: For the expression of sEH-H and sEH-Fl transformed E.coli BL21 (DE3) cells were grown in 5052; made in house; host or cells: E. coli BL21 (DE3)
- protocol: Differential scanning fluorimetry (DSF) screen on sEH
- Assay type: binding
- condition.info: 500 μM fragment, mean of duplicates
Numbers only, in °C.

compound	parameter	value.unit	readout.number
c1ccc(N2CCNCC2)nc1 [Compound 1]	DSF/ΔT m sEH	°C	0.0

Below is a list of compounds. For each, state its recorded DSF/ΔT m sEH.
1. Oc1ccc2cc[nH]c2c1 [Compound 5]
2. Fc1ccc(-c2c[nH]c3ccccc23)cc1 [Compound 10]
3. CCN(Cc1ccccc1)c1ccccc1 [Compound 7]
4. CCCCOc1cc(C(=O)OC)ccc1N [Compound 3]
5. Cc1ccccc1C(=O)Nc1ccccc1 [Compound 6]

Outgoing:
1: 0.0; 2: 0.6; 3: 1.0; 4: 0.0; 5: 2.0
